- subject of test: human Nav1.7 (Homo sapiens (Human))
- Sequence (Q15858 whole entry): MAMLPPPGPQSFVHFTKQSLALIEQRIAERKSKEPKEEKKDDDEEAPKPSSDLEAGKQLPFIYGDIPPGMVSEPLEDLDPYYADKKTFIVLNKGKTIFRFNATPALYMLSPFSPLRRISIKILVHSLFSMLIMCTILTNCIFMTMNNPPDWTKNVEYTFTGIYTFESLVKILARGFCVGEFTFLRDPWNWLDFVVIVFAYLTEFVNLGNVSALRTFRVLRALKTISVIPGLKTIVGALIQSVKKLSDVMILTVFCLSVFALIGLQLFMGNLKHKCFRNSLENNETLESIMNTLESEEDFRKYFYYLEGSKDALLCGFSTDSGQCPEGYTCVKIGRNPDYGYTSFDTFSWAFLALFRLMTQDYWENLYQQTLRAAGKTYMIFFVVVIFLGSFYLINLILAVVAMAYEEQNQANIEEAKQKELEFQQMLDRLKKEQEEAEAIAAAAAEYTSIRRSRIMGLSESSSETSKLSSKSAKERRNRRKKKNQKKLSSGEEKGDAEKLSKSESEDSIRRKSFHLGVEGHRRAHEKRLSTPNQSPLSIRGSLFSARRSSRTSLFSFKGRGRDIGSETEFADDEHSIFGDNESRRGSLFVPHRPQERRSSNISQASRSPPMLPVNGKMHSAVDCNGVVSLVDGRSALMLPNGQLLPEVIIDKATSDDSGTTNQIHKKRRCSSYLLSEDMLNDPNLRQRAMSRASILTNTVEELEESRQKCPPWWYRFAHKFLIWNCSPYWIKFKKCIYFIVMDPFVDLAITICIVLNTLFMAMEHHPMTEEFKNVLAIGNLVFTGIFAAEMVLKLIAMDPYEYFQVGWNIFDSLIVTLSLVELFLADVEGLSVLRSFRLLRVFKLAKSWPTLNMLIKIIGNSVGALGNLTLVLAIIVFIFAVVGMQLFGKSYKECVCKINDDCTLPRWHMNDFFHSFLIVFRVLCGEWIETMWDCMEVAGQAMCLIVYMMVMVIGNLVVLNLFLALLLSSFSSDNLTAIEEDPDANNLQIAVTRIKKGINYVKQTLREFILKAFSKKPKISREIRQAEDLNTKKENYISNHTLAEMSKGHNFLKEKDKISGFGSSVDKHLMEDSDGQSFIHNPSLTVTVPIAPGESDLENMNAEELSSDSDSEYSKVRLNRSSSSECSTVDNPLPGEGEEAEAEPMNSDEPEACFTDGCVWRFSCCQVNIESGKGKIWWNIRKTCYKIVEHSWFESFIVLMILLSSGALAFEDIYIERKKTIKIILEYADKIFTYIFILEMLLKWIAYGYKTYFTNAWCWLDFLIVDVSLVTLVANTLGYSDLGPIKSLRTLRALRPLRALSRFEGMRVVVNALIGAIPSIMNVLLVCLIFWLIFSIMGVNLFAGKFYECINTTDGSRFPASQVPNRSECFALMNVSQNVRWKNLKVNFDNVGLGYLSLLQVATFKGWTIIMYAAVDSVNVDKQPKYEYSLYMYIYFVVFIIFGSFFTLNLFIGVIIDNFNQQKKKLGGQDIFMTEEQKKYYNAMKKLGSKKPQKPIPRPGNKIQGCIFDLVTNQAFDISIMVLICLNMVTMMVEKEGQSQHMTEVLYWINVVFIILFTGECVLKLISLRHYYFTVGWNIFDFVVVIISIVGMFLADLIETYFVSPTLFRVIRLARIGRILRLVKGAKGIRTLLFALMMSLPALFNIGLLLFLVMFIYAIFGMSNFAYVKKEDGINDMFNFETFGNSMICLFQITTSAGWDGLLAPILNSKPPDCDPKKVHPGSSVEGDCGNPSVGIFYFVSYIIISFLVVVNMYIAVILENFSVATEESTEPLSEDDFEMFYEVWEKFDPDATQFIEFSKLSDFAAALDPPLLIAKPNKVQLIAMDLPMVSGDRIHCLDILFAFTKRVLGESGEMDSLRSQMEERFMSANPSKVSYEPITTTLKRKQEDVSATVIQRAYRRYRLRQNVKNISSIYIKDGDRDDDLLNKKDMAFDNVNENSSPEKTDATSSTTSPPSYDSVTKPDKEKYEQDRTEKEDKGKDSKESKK
- Sequence (Q07699 19-218 partner): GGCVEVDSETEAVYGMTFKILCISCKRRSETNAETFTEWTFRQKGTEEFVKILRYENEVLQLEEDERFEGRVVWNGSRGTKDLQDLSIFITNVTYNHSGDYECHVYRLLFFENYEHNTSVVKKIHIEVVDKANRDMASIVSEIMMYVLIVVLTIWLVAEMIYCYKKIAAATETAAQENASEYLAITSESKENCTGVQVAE
- protocol: Human Nav1.7 inhibitory activity evaluation (automated patch clamp QPatch16X, HEK293A cells stably expressing human Nav1.7 and human Navβ1)
- Assay type: cell-based
- cond: human Nav1.7, automated patch clamp
- Method: Test Example 1: Human Nav1.7 Inhibitory Activity Evaluation A cell line in which human Nav1.7 and human Navβ1 subunits were stably expressed in HEK293A cells was used. […] The amount of current through human Nav1.7 was recorded using a fully automatic patch clamp device QPatch16X (Sophion Biosciences) at room temperature. […]
pIC50: −log10 of the molar value.
measured property: pIC50

Examples from the recorded data:
molecule: O=C(N[C@H]1COc2ccc(COCC(F)(F)F)cc2C1)c1cc2n(n1)CC(CC1CCOCC1)O2 (mixture of isomers) [Example 605]
obs value: > 6.00
//
molecule: O=C(N[C@H]1COc2ccc(CC(F)F)cc2C1)c1cc2n(n1)CC(COC(F)(F)F)O2 (single isomer, unassigned) [198 (isomer B)]
obs value: > 6.00
//
molecule: O=C(N[C@H]1COc2ccc(Cl)cc2C1)c1cc2n(n1)CCN(C1(C(F)(F)F)CC1)C2 [Example 283]
obs value: > 6.00
//
molecule: O=C(N[C@H]1COc2ccc(COCC(F)(F)F)cc2C1)c1cc2n(n1)CC(COCC(F)(F)F)O2 (single isomer, unassigned) [188 (isomer B)]
obs value: > 6.00

What does the record list as pIC50 for O=C(N[C@H]1COc2ccc(C(F)(F)F)cc2C1)c1cc2n(n1)CCC(OCCOCC(F)(F)F)CO2 (some centres unmarked) [Example 680] ?
> 5.00

* * *

- subject of test: human Nav1.7 (Homo sapiens (Human))
- protocol: Human Nav1.7 inhibitory activity evaluation (automated patch clamp QPatch16X, HEK293A cells stably expressing human Nav1.7 and human Navβ1)
- Assay type: cell-based
- cond: human Nav1.7, automated patch clamp
Quick reference: IC50 of the listed items.

Lookup: IC50 / human Nav1.7 (Homo sapiens (Human)) / CC(C)(F)C1CCn2nc(C(=O)N[C@H]3COc4ccc(Cl)cc4C3)cc2O1 (stereo partly drawn)
< 1 µM

Another: O=C(N[C@H]1COc2ccc(C(F)(F)F)cc2C1O)c1cc2n(n1)CCN(CCC1CC1)C2 (stereo partly drawn)
< 10 µM

Another: O=C(N[C@H]1COc2ccccc2C1)c1cc2n(n1)CCN(CC(C1CC1)C1CC1)C2
< 10 µM

* * *

- subject of test: human Nav1.7 (Homo sapiens (Human))
- protocol: Human Nav1.7 inhibitory activity evaluation (automated patch clamp QPatch16X, HEK293A cells stably expressing human Nav1.7 and human Navβ1)
- Assay type: cell-based
- cond: human Nav1.7, automated patch clamp
pIC50: −log10 of the molar value.
measured property: pIC50

compound: N#Cc1ccc2c(c1)C[C@@H](NC(=O)c1cc3n(n1)CC(CCSCC(F)(F)F)O3)CO2 (single isomer, unassigned) [244 (isomer A)]
pIC50: > 6.00
--
compound: N#Cc1ccc2c(c1)C[C@@H](NC(=O)c1cc3n(n1)CC(COCC1CCC1)O3)CO2 (stereo partly shown)
pIC50: > 6.00
--
compound: COc1ncc(-c2ccc3c(c2)C[C@@H](NC(=O)c2cc4n(n2)CC(CCOCC2CC2)O4)CO3)cn1 (single isomer, unassigned) [204 (isomer B)]
pIC50: > 6.00
--
compound: COC1c2cc(C(F)(F)F)ccc2OC[C@@H]1NC(=O)c1cc2n(n1)CCC(COCC(F)(F)F)O2 (single isomer, unassigned; isomer a) [598(isomer A)]
pIC50: > 6.00

What does the record list as pIC50 for O=C(c1cn2c(n1)CCC(c1cccc(N3CCCC3)n1)C2)N1CCC(c2ccccc2)C1 (stereo not shown) ?
> 5.00

Another: Cc1c(C(=O)N[C@H]2COc3ccc(Cl)cc3C2)nn2c1OC(C)(C)C2
> 5.00

Another: COc1ccc(C2CCn3nc(C(=O)N[C@H]4COc5ccc(Cl)cc5C4)cc3O2)cn1 (stereo partly shown)
> 6.00

Origin of values: patent US12421225B2
